system: 648629-189-R-J1-PDC complex spheroids viability; experiment: Anticancer human tumor 648629-189-R-J1-PDC patient-derived bladder carcinoma cell line growth inhibition [CLK]; settings: second compound 0.316 µM; first compound 0.0316 µM; active compounds read low;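 also: drug exposure lasted seven days before viability readout; 100% = DMSO vehicle control wells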
In this section we review reported viability, T/C values for a set of compounds.

These recorded examples may help you get a feel for the data.
What does the record list as viability, T/C for O=c1[nH]cc(F)c(=O)[nH]1 + CNC(=O)c1ccc(Nc2nc(OC3CCCC3)c3c(-c4ccc5nc(C)oc5c4)c[nH]c3n2)c(OC)c1 ? 21%

Given the entry O=C(c1cc(Cc2n[nH]c(=O)c3ccccc23)ccc1F)N1CCN(C(=O)C2CC2)CC1 + CNC(=O)c1ccc(Nc2nc(OC3CCCC3)c3c(-c4ccc5nc(C)oc5c4)c[nH]c3n2)c(OC)c1 , report its measured viability, T/C. 26.9%

Fill in the blank: the reported viability, T/C of Nc1ccccc1NC(=O)c1ccc(CNC(=O)OCc2cccnc2)cc1 + CNC(=O)c1ccc(Nc2nc(OC3CCCC3)c3c(-c4ccc5nc(C)oc5c4)c[nH]c3n2)c(OC)c1 is ____. 30.3%

// viability, T/C lookup, key: CC1(C)CCC(CN2CCN(c3ccc(C(=O)NS(=O)(=O)c4ccc(NCC5CCOCC5)c([N+](=O)[O-])c4)c(Oc4cnc5[nH]ccc5c4)c3)CC2)=C(c2ccc(Cl)cc2)C1 + CNC(=O)c1ccc(Nc2nc(OC3CCCC3)c3c(-c4ccc5nc(C)oc5c4)c[nH]c3n2)c(OC)c1 26.3%

Query: viability, T/C; subject: C#Cc1c(F)ccc2cc(O)cc(-c3ncc4c(N5CC6CCC(C5)N6)nc(OCC56CCCN5CC(F)C6)nc4c3F)c12 (stereo not given) + CNC(=O)c1ccc(Nc2nc(OC3CCCC3)c3c(-c4ccc5nc(C)oc5c4)c[nH]c3n2)c(OC)c1 28.1%

Could you tell me which viability, T/C is on file for C#Cc1c(F)ccc2cc(O)cc(-c3ncc4c(N5CC6CCC(C5)N6)nc(OCC56CCCN5CC(F)C6)nc4c3F)c12 (stereo not given) + CN1CCN(c2cc(C(=O)Nc3cc4cc(-c5cnn(C)c5)ccc4cn3)ccn2)CC1 ? 50.1%

I am curious: what viability, T/C value has been reported for CCc1c2c(nc3ccc(O)cc13)-c1cc3c(c(=O)n1C2)COC(=O)[C@]3(O)CC + CNC(=O)c1ccc(Nc2nc(OC3CCCC3)c3c(-c4ccc5nc(C)oc5c4)c[nH]c3n2)c(OC)c1 ? 7.05%

Using the record for CC1COCCN1c1cc(C2(S(C)(=N)=O)CC2)nc(-c2ccnc3[nH]ccc23)n1 (stereo not given) + CNC(=O)c1ccc(Nc2nc(OC3CCCC3)c3c(-c4ccc5nc(C)oc5c4)c[nH]c3n2)c(OC)c1 , report its viability, T/C. 28.9%

Please give the measured viability, T/C for this compound: COc1c(OCCCN2CCOCC2)ccc2c3n(c(=NC(=O)c4cnc(N)nc4)nc12)CCN3 + CNC(=O)c1ccc(Nc2nc(OC3CCCC3)c3c(-c4ccc5nc(C)oc5c4)c[nH]c3n2)c(OC)c1 34.1%

Now let's try a different one.
Reported viability, T/C for COc1c(OCCCN2CCOCC2)ccc2c3n(c(=NC(=O)c4cnc(N)nc4)nc12)CCN3 + CN1CCN(c2cc(C(=O)Nc3cc4cc(-c5cnn(C)c5)ccc4cn3)ccn2)CC1 : what is it? 37.4%
